Lab note: Ki readings collected with human 5-HT1A-serotoninergic receptor (Homo sapiens) for the following compounds.
Please answer using a numeric value trailed by its unit.

given_smiles=COc1ccc(Cl)cc1N1CCN(CCCNC(=O)c2c(-c3ccccc3)noc2C)CC1 assay_system="human 5-HT1A-serotoninergic receptor (Homo sapiens)" measured="436 nM"
given_smiles=Cc1onc(-c2c(F)cccc2Cl)c1C(=O)NCCCN1CCN(c2ccc(F)cc2OCC(F)(F)F)CC1 assay_system="human 5-HT1A-serotoninergic receptor (Homo sapiens)" measured="342 nM"
given_smiles=Cc1onc(-c2ccccc2)c1C(=O)NCCCN1CCN(c2ccc(F)cc2OCC(F)(F)F)CC1 assay_system="human 5-HT1A-serotoninergic receptor (Homo sapiens)" measured="317 nM"

I am curious: what Ki value has been reported for O=C(NCCCN1CCN(c2ccc(F)cc2OCC(F)(F)F)CC1)c1conc1-c1ccc(F)cc1 ?
202 nM

---

Lab note: Ki readings collected with human 5-HT1A-serotoninergic receptor (Homo sapiens, UniProt P08908) for the following compounds.
Sequence (P08908 whole entry): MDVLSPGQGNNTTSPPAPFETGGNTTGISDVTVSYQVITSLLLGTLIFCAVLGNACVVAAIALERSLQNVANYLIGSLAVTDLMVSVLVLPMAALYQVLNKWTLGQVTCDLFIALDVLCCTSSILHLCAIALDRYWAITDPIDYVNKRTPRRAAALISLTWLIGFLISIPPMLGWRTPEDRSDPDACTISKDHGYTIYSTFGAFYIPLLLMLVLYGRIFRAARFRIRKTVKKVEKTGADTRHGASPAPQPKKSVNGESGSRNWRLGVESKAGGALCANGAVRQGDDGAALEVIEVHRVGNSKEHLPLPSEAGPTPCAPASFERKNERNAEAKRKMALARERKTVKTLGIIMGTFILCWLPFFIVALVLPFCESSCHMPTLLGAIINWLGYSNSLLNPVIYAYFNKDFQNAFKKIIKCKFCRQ
Give bare numbers, in nM.

Study these solved cases before continuing.
given_smiles=Cc1onc(-c2ccccc2)c1C(=O)NCCCN1CCN(c2cc(F)ccc2OCC(F)(F)F)CC1 measured_metric=Ki measured=192
given_smiles=Cc1onc(-c2c(Cl)cccc2Cl)c1C(=O)NCCCN1CCN(c2ccc(F)cc2OCC(F)(F)F)CC1 measured_metric=Ki measured=170

From here, focus on the item given below.
I am curious: what Ki value has been reported for Cc1onc(-c2ccccc2)c1C(=O)NCCCN1CCN(c2ccccc2OCC(F)(F)F)CC1 ?
11.7
